- study_system: recombinant human PLK1[2-369]T210D (Homo sapiens, UniProt P53350, T210D)
- Construct: recombinant human PLK1[2-369]T210D; Smt (SUMO) fusion partner (N, cleaved yes)
- Sequence (P53350 2-369 T210D): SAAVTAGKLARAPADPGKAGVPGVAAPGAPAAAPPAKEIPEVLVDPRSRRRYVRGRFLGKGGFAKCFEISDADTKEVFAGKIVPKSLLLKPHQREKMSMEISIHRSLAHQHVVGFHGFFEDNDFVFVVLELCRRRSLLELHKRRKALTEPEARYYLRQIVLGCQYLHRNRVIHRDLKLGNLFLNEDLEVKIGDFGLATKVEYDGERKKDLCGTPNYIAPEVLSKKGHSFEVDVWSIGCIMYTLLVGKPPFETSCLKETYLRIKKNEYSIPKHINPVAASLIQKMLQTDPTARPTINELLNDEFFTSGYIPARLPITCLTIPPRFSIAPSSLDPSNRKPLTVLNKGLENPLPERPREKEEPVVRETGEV
- protocol_description: PLK1 DELFIA Kinase Assay
- condition: 50 μM ATP, 2 μM peptide substrate, 0.3 nM enzyme, 90 minutes at room temperature
measured_parameter: IC50

molecule="Cc1ncccc1Nc1ncc2c(n1)-c1cc(CCCN(C)C)c(Cl)cc1NC(=S)C2 [Compound I-93]" study_system="recombinant human PLK1[2-369]T210D (Homo sapiens, UniProt P53350, T210D)" measured_parameter=IC50 measured_value="5 to 25 nM"
molecule="S=C1Cc2cnc(Nc3ccc(N4CCOCC4)nc3)nc2-c2ccc(Cl)cc2N1 [Compound I-13]" study_system="recombinant human PLK1[2-369]T210D (Homo sapiens, UniProt P53350, T210D)" measured_parameter=IC50 measured_value="< 5 nM"
molecule="Cc1ncc(CCCCN(C)C)cc1Nc1ncc2c(n1)-c1ccc(Cl)cc1NC(=S)C2 [Compound I-89]" study_system="recombinant human PLK1[2-369]T210D (Homo sapiens, UniProt P53350, T210D)" measured_parameter=IC50 measured_value="< 5 nM"

Hi there! I need IC50 for each item below, if you can.
1. Cc1ncc(C2CCN(CCF)CC2)cc1Nc1ncc2c(n1)-c1ccc(Cl)cc1NC(=S)C2 [Compound I-84]
2. Cc1nc(N2CCCC2)ccc1Nc1ncc2c(n1)-c1ccc(C(F)(F)F)cc1NC(=S)C2 [Compound I-110]
3. Cc1nc(N2CCCCC2)ccc1Nc1ncc2c(n1)-c1ccc(Cl)cc1NC(=S)C2 [Compound I-82]
4. COc1ncc(CCCN(C)C)cc1Nc1ncc2c(n1)-c1ccc(Cl)cc1NC(=S)C2 [Compound I-24]

Given back:
["< 5 nM", "5 to 25 nM", "5 to 25 nM", "< 5 nM"]

Hi there! I need IC50 for each item below, if you can.
1. Cc1ccnc(C)c1Nc1ncc2c(n1)-c1ccc(C(F)(F)F)cc1NC(=S)C2 [Compound I-98]
2. Cc1nc(N2CCC(N(C)C)CC2)ccc1Nc1ncc2c(n1)-c1ccc(C(F)(F)F)cc1NC(=S)C2 [Compound I-29]
3. Cc1nc(N2CCOCC2)ccc1Nc1ncc2c(n1)-c1ccc(C(F)(F)F)cc1NC(=S)C2 [Compound I-100]
4. Cc1nc(N2CCC(N(C)C)CC2)ccc1Nc1ncc2c(n1)-c1ccc(Cl)cc1NC(=S)C2 [Compound I-69]

Given back:
["> 25 nM", "< 5 nM", "< 5 nM", "< 5 nM"]

Hi there! I need IC50 for each item below, if you can.
1. CCN1CCN(c2cnc(C)c(Nc3ncc4c(n3)-c3ccc(C(F)(F)F)cc3NC(=S)C4)c2)C[C@@H]1C [Compound I-2]
2. Cc1ncc(CCCN(C)C)cc1Nc1ncc2c(n1)-c1cc(CCCN(C)C)c(Cl)cc1NC(=S)C2 [Compound I-120]
3. Cc1nc(NC(=O)CN(C)C)ccc1Nc1ncc2c(n1)-c1ccc(C(F)(F)F)cc1NC(=S)C2 [Compound I-121]
4. Cc1ccc(Nc2ncc3c(n2)-c2ccc(C(F)(F)F)cc2NC(=S)C3)c(C)n1 [Compound I-4]

Given back:
< 5 nM
> 25 nM
5 to 25 nM
< 5 nM

Asked: Given the entry Cc1nc(NC2CCN(C)CC2)ccc1Nc1ncc2c(n1)-c1ccc(C3CC3)cc1NC(=S)C2 [Compound I-80] , report its measured IC50.
Given back: < 5 nM

###

- study_system: recombinant human PLK1[2-369]T210D (Homo sapiens, UniProt P53350, T210D)
- Construct: recombinant human PLK1[2-369]T210D; Smt (SUMO) fusion partner (N, cleaved yes)
- protocol_description: PLK1 DELFIA Kinase Assay
- condition: 50 μM ATP, 2 μM peptide substrate, 0.3 nM enzyme, 90 minutes at room temperature
pIC50: −log10 of the molar value.
Exercise: for every item that follows, state its recorded pIC50.

Here is how some compounds turned out for pIC50.
compound="Cc1nc(N(C)C2CCN(C)C2)ccc1Nc1ncc2c(n1)-c1ccc(Cl)cc1NC(=S)C2 (stereo not shown)" measured_parameter=pIC50 measured_value="7.60 to 8.30"
compound=Cc1ncc(CCCO)cc1Nc1ncc2c(n1)-c1ccc(C(F)(F)F)cc1NC(=S)C2 measured_parameter=pIC50 measured_value="> 8.30"
compound=Cc1ccnc(C)c1Nc1ncc2c(n1)-c1ccc(Cl)cc1NC(=S)C2 measured_parameter=pIC50 measured_value="< 7.60"
compound=Cc1nc(NCCN(C)C)ccc1Nc1ncc2c(n1)-c1ccc(C(F)(F)F)cc1NC(=S)C2 measured_parameter=pIC50 measured_value="> 8.30"
compound=Cc1nc(N2CCN(C)CC2)ccc1Nc1ncc2c(n1)-c1ccc(Cl)cc1NC(=S)C2 measured_parameter=pIC50 measured_value="> 8.30"
compound=CN(C)CCc1cnc(C(F)(F)F)c(Nc2ncc3c(n2)-c2ccc(Cl)cc2NC(=S)C3)c1 measured_parameter=pIC50 measured_value="7.60 to 8.30"
compound=CCN1CCN(c2cncc(Nc3ncc4c(n3)-c3ccc(Cl)cc3NC(=S)C4)c2)C[C@@H]1C measured_parameter=pIC50 measured_value="> 8.30"
compound=Cc1nc(N(C)CCCN(C)C)ccc1Nc1ncc2c(n1)-c1ccc(C(F)(F)F)cc1NC(=S)C2 measured_parameter=pIC50 measured_value="> 8.30"

Hi there! I need pIC50 for each item below, if you can.
1. Cc1ncc(CCN2CCCCC2)cc1Nc1ncc2c(n1)-c1ccc(Cl)cc1NC(=S)C2
2. CN(C)CCCc1cnc(C(F)(F)F)c(Nc2ncc3c(n2)-c2ccc(C(F)(F)F)cc2NC(=S)C3)c1

Given back:
1. > 8.30
2. 7.60 to 8.30

###

- study_system: recombinant human PLK1[2-369]T210D (Homo sapiens, UniProt P53350, T210D)
- Construct: recombinant human PLK1[2-369]T210D; Smt (SUMO) fusion partner (N, cleaved yes)
- protocol_description: PLK1 DELFIA Kinase Assay
- condition: 50 μM ATP, 2 μM peptide substrate, 0.3 nM enzyme, 90 minutes at room temperature
Exercise: for every item that follows, state its recorded IC50.

compound="S=C1Cc2cnc(Nc3ccc(N4CCCC4)nc3)nc2-c2ccc(Cl)cc2N1 [Compound I-47]" measured_parameter=IC50 measured_value="< 5 nM"

Hi there! I need IC50 for each item below, if you can.
1. Cc1nc(CCCN(C)C)ccc1Nc1ncc2c(n1)-c1ccc(Cl)cc1NC(=S)C2 [Compound I-16]
2. Cc1ncc(CCN2CCC(N(C)C)CC2)cc1Nc1ncc2c(n1)-c1ccc(Cl)cc1NC(=S)C2 [Compound I-59]
3. Cc1ncc(CCN2CCCC(N(C)C)C2)cc1Nc1ncc2c(n1)-c1ccc(Cl)cc1NC(=S)C2 (centres unmarked) [Compound I-34]
4. Cc1ncc(N2CCN(C)CC2)cc1Nc1ncc2c(n1)-c1ccc(C(F)(F)F)cc1NC(=S)C2 [Compound I-46]

Given back:
1: 5 to 25 nM; 2: < 5 nM; 3: < 5 nM; 4: < 5 nM
